- measured on: ERα (Homo sapiens)
- Sequence (P03372 1-595): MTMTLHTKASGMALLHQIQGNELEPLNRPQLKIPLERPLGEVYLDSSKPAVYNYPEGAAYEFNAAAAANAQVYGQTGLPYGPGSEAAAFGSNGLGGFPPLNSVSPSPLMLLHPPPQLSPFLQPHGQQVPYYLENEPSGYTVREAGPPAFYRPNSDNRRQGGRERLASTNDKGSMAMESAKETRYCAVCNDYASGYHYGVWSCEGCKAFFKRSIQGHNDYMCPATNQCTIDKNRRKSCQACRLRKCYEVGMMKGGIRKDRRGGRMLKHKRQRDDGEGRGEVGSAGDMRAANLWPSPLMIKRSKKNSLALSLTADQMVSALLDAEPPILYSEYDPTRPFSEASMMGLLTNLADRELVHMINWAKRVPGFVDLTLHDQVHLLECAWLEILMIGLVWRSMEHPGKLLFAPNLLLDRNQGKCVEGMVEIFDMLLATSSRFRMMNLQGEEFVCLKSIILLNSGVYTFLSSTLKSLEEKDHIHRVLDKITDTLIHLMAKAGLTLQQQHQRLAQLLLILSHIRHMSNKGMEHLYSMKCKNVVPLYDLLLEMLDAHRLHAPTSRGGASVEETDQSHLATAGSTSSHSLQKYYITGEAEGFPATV
- test method notes: Estrogen receptor-alpha (ERα) degradation assay in MCF7 cells using In-Cell Western assay
- Assay type: cell-based
- Design: assessed for their activity in degrading ERα in MCF-7 cells via western blot; endogenous in cells; host or cells: MCF7 cells
- experimental parameters: ER-alpha degradation in MCF7 cells, 5 days of incubation
Listed here: items and their measured Dmax.

1. O=C1CCC(N2Cc3cc(N4CCN(CC5CCN(c6ccc(Oc7c(-c8ccc(Br)cc8)sc8cc(O)ccc78)cc6F)CC5)CC4)ccc3C2=O)C(=O)N1 (centres unmarked)	> 75%
2. O=C1CCC(N2Cc3c(cc(F)c(N4CCN(C5CCN(CCOc6ccc(Oc7c(-c8ccc(Br)cc8)sc8cc(O)ccc78)cc6)CC5)CC4)c3F)C2=O)C(=O)N1 (centres unmarked)	> 75%
3. O=C1CCC(N2Cc3cc(NCCCN4CCCN(CCOc5ccc(Oc6c(-c7ccc(Br)cc7)sc7cc(O)ccc67)cc5)CC4)ccc3C2=O)C(=O)N1 (centres unmarked)	> 75%
4. O=C1CCC(N2Cc3cc(N4CCN(CCCCc5ccc(Oc6c(-c7ccc(Br)cc7)sc7cc(O)ccc67)cc5)CC4)ccc3C2=O)C(=O)N1 (centres unmarked)	50 to 75%
5. O=C1CCC(N2Cc3cc(N4CCN(CCCOc5ccc(Oc6c(-c7ccc(F)cc7)sc7cc(O)ccc67)cc5)CC4)ccc3C2=O)C(=O)N1 (centres unmarked)	50 to 75%

[ask] Request the reported Dmax associated with O=C1CCC(N2Cc3cc(N4CCN(CCC5CCN(c6ccc(Oc7c(-c8ccc(F)cc8)sc8cc(O)ccc78)cc6)CC5)CC4)ccc3C2=O)C(=O)N1 (centres unmarked)
[reply] > 75%

[ask] Could you do the same for "O=C1CC[C@H](N2Cc3cc(CCN4CCCN(CCCCOc5ccc(Oc6c(-c7ccc(Br)cc7)sc7cc(O)ccc67)cc5)CC4)ccc3C2=O)C(=O)N1" , please?
[reply] > 75%

[ask] Could you do the same for O=C1CCC(N2C(=O)c3ccc(N4CCN([C@H]5C[C@H](Oc6ccc(Oc7c(-c8ccc(Br)cc8)sc8cc(O)ccc78)cc6)C5)CC4)cc3C2=O)C(=O)N1 (some centres unmarked) , please?
[reply] > 75%

[ask] Could you do the same for O=C1CCC(N2C(=O)c3ccc(NCCCN4CCN(CCOc5ccc(Oc6c(-c7ccc(Br)cc7)sc7cc(O)ccc67)cc5)CC4)cc3C2=O)C(=O)N1 (centres unmarked) , please?
[reply] > 75%

[ask] Could you do the same for O=C1CCC(N2Cc3nc(N4CCN(CC5CCN(c6ccc(Oc7c(-c8ccc(F)cc8)sc8cc(O)ccc78)cc6)CC5)CC4)ccc3C2=O)C(=O)N1 (centres unmarked) , please?
[reply] > 75%

[ask] Could you do the same for O=C1CCC(N2Cc3cc(NCCCOCCCOCCCOc4ccc(Oc5c(-c6ccc(Br)cc6)sc6cc(O)ccc56)cc4)ccc3C2=O)C(=O)N1 (centres unmarked) , please?
[reply] 50 to 75%

[ask] Could you do the same for O=C1CCC(N2C(=O)c3ccc(N4CC(CN5CCCN(CCOc6ccc(Oc7c(-c8ccc(Br)cc8)sc8cc(O)ccc78)cc6)CC5)C4)cc3C2=O)C(=O)N1 (centres unmarked) , please?
[reply] 50 to 75%

[ask] Could you do the same for O=C1CCC(N2Cc3cc(N4CCN(CC5CCN(c6ccc(Oc7c(-c8ccc(F)cc8)sc8cc(O)ccc78)cc6)CC5)CC4)ccc3C2=O)C(=O)N1 (centres unmarked) , please?
[reply] > 75%

[ask] Could you do the same for O=C1CCC(N2Cc3nc(N4CCN(CC5CCN(c6ccc(Oc7c(-c8ccc(Br)cc8)sc8cc(O)ccc78)cc6F)CC5)CC4)ccc3C2=O)C(=O)N1 (centres unmarked) , please?
[reply] > 75%

[ask] Could you do the same for O=C1CCC(N2Cc3nc(N4CCN(CC5CCN(c6ccc(Oc7c(-c8ccc(O)cc8)sc8cc(O)ccc78)cc6)CC5)CC4)ccc3C2=O)C(=O)N1 (centres unmarked) , please?
[reply] 50 to 75%

---

Listed here: items and their measured DC50.
- measured on: ERα (Homo sapiens)
- test method notes: Estrogen receptor-alpha (ERα) degradation assay in MCF7 cells using In-Cell Western assay
- Assay type: cell-based
- Parameters: assessed for their activity in degrading ERα in MCF-7 cells via western blot; endogenous in cells; host or cells: MCF7 cells
- experimental parameters: ER-alpha degradation in MCF7 cells, 5 days of incubation
Counter-ions that a name gives are not always drawn.

[ask] Request the reported DC50 associated with O=C1CCC(N2C(=O)c3ccc(C4CCN(C5CCN(CCOc6ccc(Oc7c(-c8ccc(Br)cc8)sc8cc(O)ccc78)cc6)CC5)CC4)cc3C2=O)C(=O)N1 (centres unmarked) [Compound 190, Hydrochloride]
[reply] 1 to 10 nM

[ask] Could you do the same for O=C1CCC(N2Cc3cc(CCCCN4CCCN(CCOc5ccc(Oc6c(-c7ccc(Br)cc7)sc7cc(O)ccc67)cc5)CC4)ccc3C2=O)C(=O)N1 (centres unmarked) [Compound 199] , please?
[reply] 1 to 10 nM

[ask] Could you do the same for O=C1CCC(N2Cc3c(cc(F)c(N4CCN(C5CCN(CCOc6ccc(Oc7c(-c8ccc(Br)cc8)sc8cc(O)ccc78)cc6)CC5)CC4)c3F)C2=O)C(=O)N1 (centres unmarked) [Compound 205] , please?
[reply] 10 to 100 nM

[ask] Could you do the same for COc1ccc(-c2sc3cc(O)ccc3c2Oc2ccc(OCCN3CCN(CCCNc4ccc5c(c4)CN(C4CCC(=O)NC4=O)C5=O)CC3)cc2)cc1 (centres unmarked) [Compound 180] , please?
[reply] < 1 nM

[ask] Could you do the same for O=C1CCC(N2Cc3cc(N4CCN(CC5CCN(c6ccc(Oc7c(-c8ccc(F)cc8)sc8cc(O)ccc78)cn6)CC5)CC4)ccc3C2=O)C(=O)N1 (centres unmarked) [Compound 232] , please?
[reply] < 1 nM

---

- measured on: ERα (Homo sapiens)
- test method notes: ERE luciferase reporter gene assay in T47D-KBluc cells (target engagement)
- Format: cell-based
- Design: T47D human breast cancer cells stably transfected with estrogen responsive element/promoter/luciferase reporter gene; host or cells: T47D-KBluc cells
- experimental parameters: 10% FBS, 24 hours, Table 2 VHL centric PROTACs, read-out: IC50
pIC50: −log10 of the molar value.
quantity: pIC50

[I] C[C@H](NC(=O)[C@@H]1C[C@@H](O)CN1C(=O)[C@@H](NC(=O)COCCOCCN(C)CCOc1ccc(Oc2c(-c3ccc(F)cc3)sc3cc(O)ccc23)cc1)C(C)(C)C)c1ccc(Cl)cc1
[II] Cc1ncsc1-c1ccc(CNC(=O)[C@@H]2C[C@@H](O)CN2C(=O)[C@@H](NC(=O)CN2CCN(CCOCCOc3ccc(Oc4c(-c5ccc(Br)cc5)sc5cc(O)ccc45)cc3)CC2)C(C)(C)C)cc1
[III] Cc1ncsc1-c1ccc([C@H](C)NC(=O)[C@@H]2C[C@@H](O)CN2C(=O)[C@@H](NC(=O)COCCN2CCN(CCOc3ccc(Oc4c(-c5ccc(Br)cc5)sc5cc(O)ccc45)cc3)CC2)C(C)(C)C)cc1
[ask] hey, can you rank those compounds up there by pIC50? biggest number first please Reply with the item labels sorted in the order that was asked for.
[reply] I, III, II
(I: 8.85, III: 8.49, II: 7.86)

---

Listed here: items and their measured Dmax.
- measured on: UniProt:P03372
- test method notes: Estrogen receptor-alpha (ERα) degradation assay in MCF7 cells using In-Cell Western assay
- Type: cell-based
- Design: assessed for their activity in degrading ERα in MCF-7 cells via western blot; endogenous in cells; host or cells: MCF7 cells
- experimental parameters: ER-alpha degradation in MCF7 cells, 5 days of incubation

Some molecules with recorded Dmax:
1. O=C1CCC(N2Cc3cc(N4CCC(CN5CC(c6ccc(Oc7c(-c8ccc(Br)cc8)sc8cc(O)ccc78)cc6)C5)CC4)ccc3C2=O)C(=O)N1 (centres unmarked) [Compound 216]	50 to 75%
2. O=C1CCC(N2C(=O)c3ccc(N4CCN(CC5CCN(c6ccc(Oc7c(-c8ccc(Br)cc8)sc8cc(O)ccc78)cc6)CC5)CC4)cc3C2=O)C(=O)N1 (centres unmarked) [Compound 228]	> 75%
3. O=C1CCC(N2Cc3c(ccc(N4CCN(CC5CCN(CCOc6ccc(Oc7c(-c8ccc(C(F)(F)F)cc8)sc8cc(O)ccc78)cc6)CC5)CC4)c3F)C2=O)C(=O)N1 (centres unmarked) [Compound 201]	> 75%
4. O=C1CCC(N2C(=O)c3ccc(N4CC(N5CCC(Oc6ccc(Oc7c(-c8ccc(Br)cc8)sc8cc(O)ccc78)cc6)CC5)C4)cc3C2=O)C(=O)N1 (centres unmarked) [Compound 213]	< 50%
5. O=C1CCC(N2C(=O)c3ccc(N4CCN(CCCCCOc5ccc(Oc6c(-c7ccc(Br)cc7)sc7cc(O)ccc67)cc5)CC4)cc3C2=O)C(=O)N1 (centres unmarked) [Compound 61]	50 to 75%

# context switch: different molecule, same Dmax
[ask] Request the reported Dmax associated with O=C1CCC(N2Cc3cc(NCCCOCCCOCCOc4ccc(Oc5c(-c6ccc(Br)cc6)sc6cc(O)ccc56)cc4)ccc3C2=O)C(=O)N1 (centres unmarked) [Compound 89]
[reply] 50 to 75%
